I'd appreciate it if you could supply % inhibition of the proliferation of HUVEC values for the items below.
Test system: human umbilical vein endothelial cells (HUVEC)
Experiment: HUVEC proliferation assay (VEGF-stimulated, MTT);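 note: relative to VEGF-stimulated control minus starvation-medium baseline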
Assay type: cell-based
Settings: Library II, Y=S; 0.5 mM (column head; text: nominal 0.5 nM); crude reaction mixtures
State the answer as a number, implicitly in %.

## Input State, in one line, measured % inhibition of the proliferation of HUVEC of CCn1nccc1NC(=O)c1ccccc1Sc1ccc2c(/C=C/c3ccccn3)n[nH]c2c1
## Output 26

## Input State, in one line, measured % inhibition of the proliferation of HUVEC of NC(=O)c1ccccc1Sc1ccc2c(/C=C/c3ccccn3)n[nH]c2c1
## Output 9

## Input State, in one line, measured % inhibition of the proliferation of HUVEC of CCCCN(CC)CCNC(=O)c1ccccc1Sc1ccc2c(/C=C/c3ccccn3)n[nH]c2c1
## Output 2

## Input State, in one line, measured % inhibition of the proliferation of HUVEC of CCCC(CO)NC(=O)c1ccccc1Sc1ccc2c(/C=C/c3ccccn3)n[nH]c2c1 (stereo not shown)
## Output 44

## Input State, in one line, measured % inhibition of the proliferation of HUVEC of O=C(NC1CCN(Cc2ccccc2)CC1)c1ccccc1Sc1ccc2c(/C=C/c3ccccn3)n[nH]c2c1
## Output 44

## Input State, in one line, measured % inhibition of the proliferation of HUVEC of CC(=O)NCCNC(=O)c1ccccc1Sc1ccc2c(/C=C/c3ccccn3)n[nH]c2c1
## Output 15

## Input State, in one line, measured % inhibition of the proliferation of HUVEC of CN1CCN(NC(=O)c2ccccc2Sc2ccc3c(/C=C/c4ccccn4)n[nH]c3c2)CC1
## Output 19

## Input State, in one line, measured % inhibition of the proliferation of HUVEC of O=C(NN1CCCC1)c1ccccc1Sc1ccc2c(/C=C/c3ccccn3)n[nH]c2c1
## Output 17

## Input State, in one line, measured % inhibition of the proliferation of HUVEC of N#CCNC(=O)c1ccccc1Sc1ccc2c(/C=C/c3ccccn3)n[nH]c2c1
## Output 18

## Input State, in one line, measured % inhibition of the proliferation of HUVEC of CC(C)OCCCNC(=O)c1ccccc1Sc1ccc2c(/C=C/c3ccccn3)n[nH]c2c1
## Output 34

## Input State, in one line, measured % inhibition of the proliferation of HUVEC of CN1CCCC1CCNC(=O)c1ccccc1Sc1ccc2c(/C=C/c3ccccn3)n[nH]c2c1 (stereo not shown)
## Output 30

## Input State, in one line, measured % inhibition of the proliferation of HUVEC of O=C(Nc1nnn[nH]1)c1ccccc1Sc1ccc2c(/C=C/c3ccccn3)n[nH]c2c1
## Output 21

## Input State, in one line, measured % inhibition of the proliferation of HUVEC of Cc1ccc(CNC(=O)c2ccccc2Sc2ccc3c(/C=C/c4ccccn4)n[nH]c3c2)o1 [drawing 763]
## Output 56

## Input State, in one line, measured % inhibition of the proliferation of HUVEC of O=C1CSC(NC(=O)c2ccccc2Sc2ccc3c(/C=C/c4ccccn4)n[nH]c3c2)=N1
## Output 9

## Input State, in one line, measured % inhibition of the proliferation of HUVEC of Cc1ccccc1CNC(=O)c1ccccc1Sc1ccc2c(/C=C/c3ccccn3)n[nH]c2c1
## Output 24

## Input State, in one line, measured % inhibition of the proliferation of HUVEC of O=C(NCC(F)(F)F)c1ccccc1Sc1ccc2c(/C=C/c3ccccn3)n[nH]c2c1 [drawing 626]
## Output 34

## Input State, in one line, measured % inhibition of the proliferation of HUVEC of O=C(NCCCn1ccnc1)c1ccccc1Sc1ccc2c(/C=C/c3ccccn3)n[nH]c2c1
## Output 23

## Input State, in one line, measured % inhibition of the proliferation of HUVEC of CC(C)(C)CNC(=O)c1ccccc1Sc1ccc2c(/C=C/c3ccccn3)n[nH]c2c1 [drawing 728]
## Output 19

## Input State, in one line, measured % inhibition of the proliferation of HUVEC of O=C(O)CNC(=O)c1ccccc1Sc1ccc2c(/C=C/c3ccccn3)n[nH]c2c1
## Output 8

## Input State, in one line, measured % inhibition of the proliferation of HUVEC of CN(C)CC(C)(C)CNC(=O)c1ccccc1Sc1ccc2c(/C=C/c3ccccn3)n[nH]c2c1
## Output 38

## Input State, in one line, measured % inhibition of the proliferation of HUVEC of O=C(NCCCN1CCCCC1)c1ccccc1Sc1ccc2c(/C=C/c3ccccn3)n[nH]c2c1
## Output 16

## Input State, in one line, measured % inhibition of the proliferation of HUVEC of COC(=O)c1ccc(NC(=O)c2ccc3c(-c4nc5ccccc5[nH]4)n[nH]c3c2)o1 [drawing 608]
## Output 38

## Input State, in one line, measured % inhibition of the proliferation of HUVEC of O=C(CNC(=O)c1ccccc1Sc1ccc2c(/C=C/c3ccccn3)n[nH]c2c1)NO
## Output 5

## Input State, in one line, measured % inhibition of the proliferation of HUVEC of COC(=O)c1cc(NC(=O)c2ccc3c(-c4nc5ccccc5[nH]4)n[nH]c3c2)ccc1O [drawing 610]
## Output 39

## Input State, in one line, measured % inhibition of the proliferation of HUVEC of CCCC(CCC)NC(=O)c1ccccc1Sc1ccc2c(/C=C/c3ccccn3)n[nH]c2c1
## Output 1

## Input State, in one line, measured % inhibition of the proliferation of HUVEC of O=C(NCCc1c[nH]cn1)c1ccccc1Sc1ccc2c(/C=C/c3ccccn3)n[nH]c2c1
## Output 23

## Input State, in one line, measured % inhibition of the proliferation of HUVEC of O=C(O)CNC(=O)CCNC(=O)c1ccccc1Sc1ccc2c(/C=C/c3ccccn3)n[nH]c2c1
## Output 49

## Input State, in one line, measured % inhibition of the proliferation of HUVEC of CC(C)(C)CNC(=O)c1ccccc1Sc1ccc2c(/C=C/c3ccccn3)n[nH]c2c1 [drawing 687]
## Output 5

## Input State, in one line, measured % inhibition of the proliferation of HUVEC of O=C(NO)c1ccccc1Sc1ccc2c(/C=C/c3ccccn3)n[nH]c2c1
## Output 7

## Input State, in one line, measured % inhibition of the proliferation of HUVEC of O=C(NCCS(=O)(=O)O)c1ccccc1Sc1ccc2c(/C=C/c3ccccn3)n[nH]c2c1
## Output 16

## Input State, in one line, measured % inhibition of the proliferation of HUVEC of Cc1cc(NC(=O)c2ccccc2Sc2ccc3c(/C=C/c4ccccn4)n[nH]c3c2)no1
## Output 28

## Input State, in one line, measured % inhibition of the proliferation of HUVEC of CCCCC(CC)NC(=O)c1ccccc1Sc1ccc2c(/C=C/c3ccccn3)n[nH]c2c1 (stereo not shown)
## Output 31

## Input State, in one line, measured % inhibition of the proliferation of HUVEC of O=C(NCC1CCCO1)c1ccccc1Sc1ccc2c(/C=C/c3ccccn3)n[nH]c2c1 (stereo not shown)
## Output 23

## Input State, in one line, measured % inhibition of the proliferation of HUVEC of CCNC(=O)c1ccccc1Sc1ccc2c(/C=C/c3ccccn3)n[nH]c2c1 [drawing 696]
## Output 16

## Input State, in one line, measured % inhibition of the proliferation of HUVEC of Cc1cnc(NC(=O)c2ccccc2Sc2ccc3c(/C=C/c4ccccn4)n[nH]c3c2)s1
## Output 20

## Input State, in one line, measured % inhibition of the proliferation of HUVEC of O=C(NCCCO)c1ccccc1Sc1ccc2c(/C=C/c3ccccn3)n[nH]c2c1
## Output 24

## Input State, in one line, measured % inhibition of the proliferation of HUVEC of O=C(NNCC(F)(F)F)c1ccccc1Sc1ccc2c(/C=C/c3ccccn3)n[nH]c2c1
## Output 16

* * *

Target: human CHK1 (FL-CHK1) (Homo sapiens, UniProt O14757)
Construct: C-terminally His-tagged full-length human CHK1 (FL-CHK1); made in house; host or cells: baculovirus/insect cell system
Sequence (O14757 whole entry): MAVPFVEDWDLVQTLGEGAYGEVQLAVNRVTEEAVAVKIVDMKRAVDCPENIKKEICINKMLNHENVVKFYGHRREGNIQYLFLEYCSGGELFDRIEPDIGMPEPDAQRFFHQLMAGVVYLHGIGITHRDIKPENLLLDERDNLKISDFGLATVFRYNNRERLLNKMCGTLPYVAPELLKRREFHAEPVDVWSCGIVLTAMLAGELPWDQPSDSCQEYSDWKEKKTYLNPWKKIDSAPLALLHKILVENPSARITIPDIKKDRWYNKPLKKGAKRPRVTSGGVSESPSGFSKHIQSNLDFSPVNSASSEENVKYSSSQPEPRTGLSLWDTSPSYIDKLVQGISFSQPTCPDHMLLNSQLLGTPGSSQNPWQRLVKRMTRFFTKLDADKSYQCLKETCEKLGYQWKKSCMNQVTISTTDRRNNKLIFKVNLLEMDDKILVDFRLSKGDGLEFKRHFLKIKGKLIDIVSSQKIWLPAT
Assay: CHK1 assay (coupled spectrophotometric, Syntide-2)
Type: biochemical
Settings: Table 2
endpoint.name: pKi
The meaning of pKi here: minus log10 of the concentration in molar units.

## Input State, in one line, measured pKi of COc1cc(-c2ccc3c(-c4nc5ccccc5[nH]4)n[nH]c3c2)c(C)cc1O
## Output 7.55

## Input State, in one line, measured pKi of COc1cc(O)ccc1-c1ccc2c(-c3nc4ccccc4[nH]3)n[nH]c2c1
## Output 7.25

## Input State, in one line, measured pKi of Cc1cc(O)c(Cl)cc1-c1ccc2c(-c3nc4ccccc4[nH]3)n[nH]c2c1
## Output 7.36

* * *

Assay: Determination of inhibitor concentration in mouse plasma after intraperitoneal and oral dosing
Type: in vivo
Conditions: female, PO, 10 mg/kg, vehicle PEG400:H2O pH 2.3 30:70, read-out: Cmin (7 hr conc.)
endpoint.name: concentration at 7 hr (ng/mL)
State the answer as a number, implicitly in ng/mL.

## Input State, in one line, measured concentration at 7 hr of CCn1nc(C)cc1C(=O)Nc1cccc(Oc2ccc3c(/C=C/c4ccccn4)n[nH]c3c2)c1
## Output 2020

Measured values drawn from patent US6534524B1 for this set.
